Entry source: paper PMC9971447

# Tested on: SW480
# assay text: SRB antiproliferation assay, SW480 colorectal cancer cells
# Format: cell-based
# reported conditions: read-out: Cytotoxicity (as of %Control) IC50 value, SW480; SRB, 72 h incubations, mean ± SD, n = 3
Reported pIC50 values follow for various compounds
Please note pIC50 is a logarithmic value: minus log10 of concentration in mol/L. Answer with that number alone.

CC[C@H](C)C(=O)O[C@H]1CCC=C2C=C[C@H](C)[C@H](CC[C@@H]3C[C@@H](O)CC(=O)O3)[C@H]21	4.44

In the following, a different compound is considered.
Fill in the blank: the reported pIC50 of CC(C)c1nc(N(C)S(C)(=O)=O)nc(-c2ccc(F)cc2)c1/C=C/[C@@H](O)C[C@@H](O)CC(=O)O is ____.
4.64
